Reference source for all entries: patent US9273058B2

Could you please report measured pIC50 for the items listed next?
biological target: CK1ε (Homo sapiens); experiment: CK1ε kinase assay (Caliper LabChip electrophoretic separation of fluoresceinated peptide substrate and product); assay type: biochemical; conditions: 200 pM CK1ε, 50 μM ATP, 1.5 μM peptide, 22 hours at room temperature; read-out: CK1ε IC50 range
pIC50: −log10 of the molar value.

Some molecules with known pIC50 results, for comparison:
CC(C)(C)NC(=O)N1Cc2c(C(N)=O)c(-c3ccc(F)c(Cl)c3)nn2C(C(=O)NC2CC2)C1 (stereo not shown) [Compound A23]: 7.00 to 8.00
NC(=O)c1c(-c2ccc(Cl)c(Cl)c2)nn2c1CN(C(=O)NC1CC(C(F)F)C1)CC2 (stereo not shown) [Compound 255]: 8.00 to 11.00
NC(=O)c1c(-c2ccc(Cl)c(Cl)c2)nn2c1CN(C(=O)NC1CC(F)(F)C1)CC2: 8.00 to 11.00

Could you now consider this next molecule?
// query pIC50 value for entry "NC(=O)c1c(-c2ccc(F)c(Cl)c2)nn2c1CN(C(=O)NC1CCC(F)(F)CC1)C[C@@H]2C(F)F"
8.00 to 11.00

====

target: CK1ε (Homo sapiens, UniProt P49674); assay: CK1ε kinase assay (Caliper LabChip electrophoretic separation of fluoresceinated peptide substrate and product); assay type: biochemical; details: 200 pM CK1ε, 50 μM ATP, 1.5 μM peptide, 22 hours at room temperature; read-out: CK1ε
Sequence (P49674 whole entry): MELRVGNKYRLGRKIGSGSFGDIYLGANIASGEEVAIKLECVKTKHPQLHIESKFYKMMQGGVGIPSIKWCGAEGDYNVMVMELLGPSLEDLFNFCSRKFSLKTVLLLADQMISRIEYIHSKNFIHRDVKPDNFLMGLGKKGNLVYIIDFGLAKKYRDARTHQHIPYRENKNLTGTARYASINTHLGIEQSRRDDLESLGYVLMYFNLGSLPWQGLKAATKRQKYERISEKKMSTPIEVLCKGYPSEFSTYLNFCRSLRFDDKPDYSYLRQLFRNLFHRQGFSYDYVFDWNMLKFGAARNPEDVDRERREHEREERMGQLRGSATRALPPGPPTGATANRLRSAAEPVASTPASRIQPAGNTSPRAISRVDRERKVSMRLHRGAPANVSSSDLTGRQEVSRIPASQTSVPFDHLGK
pIC50: −log10 of the molar value.
Label scheme for pIC50: lower than 9 is NO, 9 and above is YES.

NC(=O)c1c(-c2cccc(F)c2)nn2c1CN(C(=O)NC1CCN(CCC(F)(F)F)CC1)CC2 [Compound 103]: NO

Could you tell me if the measured pIC50 of CC1CC(NC(=O)N2CCn3nc(-c4ccc(Cl)c(Cl)c4)c(C(N)=O)c3C2)C1 (single isomer, unassigned) [Compound 248] reaches 9 or more?
YES

Lookup N#Cc1ccc(NC(=O)N2CCn3nc(-c4cccc(F)c4)c(C(N)=O)c3C2)cc1 [Compound 61]
NO

Lookup NC(=O)c1c(-c2ccc(Cl)c(Cl)c2)nn2c1CN(C(=O)NC1CC(F)(F)C1)C[C@@H]2CF [Compound A30]
YES

Lookup CC(C)(C)NC(=O)N1CCn2nc(-c3ccc(C#N)cc3)c(C(N)=O)c2C1 [Compound 127]
NO

Lookup CC(C)(C)NC(=O)N1CCn2nc(-c3ccc(F)c(F)c3)c(C(N)=O)c2C1 [Compound 106]
NO

Lookup CC(C)(C)NC(=O)N1CCn2nc(-c3cccc(C#N)c3)c(C(N)=O)c2C1 [Compound 114]
NO

====

Could you please report measured log10(IC50) for the items listed next?
target: CK1δ (Homo sapiens, UniProt P48730); assay: CK1δ kinase assay (Caliper LabChip electrophoretic separation of fluoresceinated peptide substrate and product); format: biochemical; conditions: 200 pM CK1δ, 50 μM ATP, 1.5 μM peptide, 22 hours at room temperature; read-out: CK1δ
Sequence (P48730 whole entry): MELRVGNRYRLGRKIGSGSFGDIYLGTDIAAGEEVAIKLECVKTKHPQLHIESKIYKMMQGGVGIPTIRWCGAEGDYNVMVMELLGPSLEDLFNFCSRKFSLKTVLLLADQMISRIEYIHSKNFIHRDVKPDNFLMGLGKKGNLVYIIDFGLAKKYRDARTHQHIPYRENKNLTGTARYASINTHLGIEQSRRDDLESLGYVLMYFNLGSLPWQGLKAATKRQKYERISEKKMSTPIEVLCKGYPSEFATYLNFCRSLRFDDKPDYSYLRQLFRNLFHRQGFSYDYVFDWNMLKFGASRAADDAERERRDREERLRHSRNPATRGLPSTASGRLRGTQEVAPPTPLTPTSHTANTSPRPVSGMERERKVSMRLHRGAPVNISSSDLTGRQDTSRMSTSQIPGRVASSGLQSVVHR
Values are log10 of IC50 in nM.

Some compounds with known log10(IC50) results, for comparison:
CC(C)(C)NC(=O)N1CCn2nc(-c3ccc(C#N)cc3)c(C(N)=O)c2C1 [Compound 127]: 2.55
N#Cc1ccc(NC(=O)N2CCn3nc(-c4cccc(Cl)c4)c(C(N)=O)c3C2)cc1 [Compound 166]: -0.52
CC(C)(C)NC(=O)N1CCn2nc(-c3ccc(F)c(Cl)c3)c(C(N)=O)c2C1 [Compound 104]: -0.15
NC(=O)c1c(-c2cccc(F)c2)nn2c1CN(C(=O)NC1CCCCC1)CC2 [Compound 6]: 0.38
CC(C)(C)NC(=O)N1CCn2nc(-c3ccc4cc[nH]c4c3)c(C(N)=O)c2C1 [Compound 143]: 0.62

Batch: log10(IC50) for all items listed.
1. CC(C)(C)NC(=O)N1CCn2nc(-c3ccc(F)cc3F)c(C(N)=O)c2C1 [Compound 124]
2. CC(C)(C)NC(=O)N1CCn2nc(-c3cn[nH]c3)c(C(N)=O)c2C1 [Compound 145]

2.24
3.02

====

biological target: CK1δ (Homo sapiens, UniProt P48730); assay: CK1δ kinase assay (Caliper LabChip electrophoretic separation of fluoresceinated peptide substrate and product); type: biochemical; conditions: 200 pM CK1δ, 50 μM ATP, 1.5 μM peptide, 22 hours at room temperature; read-out: CK1δ IC50 range
pIC50: −log10 of the molar value.
property: pIC50

Some molecules with known pIC50 results, for comparison:
COc1cc(NC(=O)N2CCn3nc(-c4cccc(F)c4)c(C(N)=O)c3C2)ncn1 [Compound 75]: 7.00 to 8.00
CC(C)(C)NC(=O)N1Cc2c(C(N)=O)c(-c3ccc(F)c(Cl)c3)nn2C(COC(F)F)C1 (centres unmarked) [Compound A21]: 7.00 to 8.00
CNC(=O)C(C)(C)NC(=O)N1CCn2nc(-c3ccc(F)c(Cl)c3)c(C(N)=O)c2C1 [Compound 214]: 7.00 to 8.00
CC1(NC(=O)N2CCn3nc(-c4cc(Cl)cc(Cl)c4)c(C(N)=O)c3C2)CC(F)(F)C1 [Compound 298]: 8.00 to 11.00
CC1(NC(=O)N2CCn3nc(-c4cccc(Cl)c4)c(C(N)=O)c3C2)CC2(CC2)C1 [Compound 318]: 8.00 to 11.00
N#Cc1ccc(C2(NC(=O)N3CCn4nc(-c5ccc(Cl)c(Cl)c5)c(C(N)=O)c4C3)CC(F)(F)C2)cc1 [Compound 316]: 8.00 to 11.00

Batch: pIC50 for all items listed.
1. NC(=O)c1c(-c2ccc(Cl)c(Cl)c2)nn2c1CN(C(=O)NCC1CC(F)(F)C1)CC2 [Compound 205]
2. CC(C)(C)NC(=O)N1CCn2nc(-c3cc(F)ccc3F)c(C(N)=O)c2C1 [Compound 151]

8.00 to 11.00
5.70 to 7.00

====

Could you please report measured IC50 for the items listed next?
target: CK1δ (Homo sapiens, UniProt P48730); assay: CK1δ kinase assay (Caliper LabChip electrophoretic separation of fluoresceinated peptide substrate and product); assay type: biochemical; conditions: 200 pM CK1δ, 50 μM ATP, 1.5 μM peptide, 22 hours at room temperature; read-out: CK1δ IC50 range

Batch: IC50 for all items listed.
1. CS(=O)(=O)[C@H]1C[C@@H](NC(=O)N2CCn3nc(-c4cccc(Cl)c4)c(C(N)=O)c3C2)C1
2. NC(=O)c1c(-c2ccc(F)c(Cl)c2)nn2c1CN(C(=O)NC13CCC(CC1)CC3)CC2
3. CC(C)(C)NC(=O)N1CCn2nc(-c3ccc(C#N)cc3)c(C(N)=O)c2C1
4. CC(C)(O)C12CCC(NC(=O)N3CCn4nc(-c5ccc(F)c(Cl)c5)c(C(N)=O)c4C3)(CC1)CC2

1. 0.01 to 10 nM
2. 0.01 to 10 nM
3. 100 to 2000 nM
4. 0.01 to 10 nM

Batch: IC50 for all items listed.
1. CC1(NC(=O)N2CCn3nc(-c4cccc(Cl)c4)c(C(N)=O)c3C2)CC1
2. CC1Cn2nc(-c3ccc(F)c(Cl)c3)c(C(N)=O)c2CN1C(=O)NC1CC(F)(F)C1 (single isomer, unassigned) [Compound 342]
3. CC1(NC(=O)N2CCn3nc(-c4ccc(Cl)c(Cl)c4)c(C(N)=O)c3C2)CC(F)(F)C1

1: 0.01 to 10 nM; 2: 10 to 100 nM; 3: 0.01 to 10 nM

====

Could you please report measured IC50 for the items listed next?
molecular target: CK1ε (Homo sapiens, UniProt P49674); assay: CK1ε kinase assay (Caliper LabChip electrophoretic separation of fluoresceinated peptide substrate and product); format: biochemical; conditions: 200 pM CK1ε, 50 μM ATP, 1.5 μM peptide, 22 hours at room temperature; read-out: CK1ε IC50 range

Some compounds with known IC50 results, for comparison:
CC(C)(C)NC(=O)N1Cc2c(C(N)=O)c(-c3ccc(F)c(Cl)c3)nn2C(C(C)(C)C)C1 (single isomer, unassigned) [Compound A117]: 10 to 100 nM
NC(=O)c1c(-c2cccc(F)c2)nn2c1CN(C(=O)Nc1cncnc1)CC2: 10 to 100 nM
CC(C)(NC(=O)N1CCn2nc(-c3ccc(Cl)c(Cl)c3)c(C(N)=O)c2C1)C(F)F: 0.01 to 10 nM

// query IC50 value for entry "NC(=O)c1c(-c2cccc(F)c2)nn2c1CN(C(=O)NC1CCC(F)(F)CC1)CC2"
100 to 2000 nM

====

Could you please report measured IC50 for the items listed next?
target: CK1ε (Homo sapiens); assay: CK1ε kinase assay (Caliper LabChip electrophoretic separation of fluoresceinated peptide substrate and product); assay type: biochemical; settings: 200 pM CK1ε, 50 μM ATP, 1.5 μM peptide, 22 hours at room temperature; read-out: CK1ε IC50 range

Some compounds with known IC50 results, for comparison:
CC1(NC(=O)N2CCn3nc(-c4ccc(Cl)c(Cl)c4)c(C(N)=O)c3C2)CC2(CC2)C1 [Compound 319]: 0.01 to 10 nM
Cn1cc(-c2nn3c(c2C(N)=O)CN(C(=O)NC(C)(C)C)CC3)cn1 [Compound 153]: 100 to 2000 nM
CC(C)(C)NC(=O)N1Cc2c(C(N)=O)c(-c3ccc(F)c(Cl)c3)nn2C(C(=O)NC2CC2)C1 (stereo not shown) [Compound A24]: 10 to 100 nM
NC(=O)c1c(-c2cccc(F)c2)nn2c1CN(C(=O)NCc1ccc(Cl)c(Cl)c1)CC2 [Compound 46]: 10 to 100 nM
CC(C)(NC(=O)N1CCn2nc(-c3ccc(F)c(Cl)c3)c(C(N)=O)c2C1)C(=O)N1CCCC1 [Compound 215]: 10 to 100 nM

Batch: IC50 for all items listed.
1. NC(=O)c1c(-c2ccc(Cl)c(Cl)c2)nn2c1CN(C(=O)NC1(c3ccc(F)cc3)CC(F)(F)C1)CC2 [Compound 310]
2. NC(=O)c1c(-c2ccc(Cl)c(Cl)c2)nn2c1CN(C(=O)NC1(CF)CC(F)(F)C1)CC2 [compound 303]
3. N#CCC1(NC(=O)N2CCn3nc(-c4cccc(Cl)c4)c(C(N)=O)c3C2)CCC1 [Compound 221]

["0.01 to 10 nM", "0.01 to 10 nM", "0.01 to 10 nM"]

Batch: IC50 for all items listed.
1. NC(=O)c1c(-c2cccc(F)c2)nn2c1CN(C(=O)Nc1ccc(O)nc1)CC2 [Compound 88]
2. CC(C)(C)NC(=O)N1Cc2c(C(N)=O)c(-c3cccc(F)c3)nn2C(CF)C1 (single isomer, unassigned) [Compound A107]
3. NC(=O)c1c(-c2ccc(F)c(Cl)c2)nn2c1CN(C(=O)NC1(c3cccnc3)CC(F)(F)C1)CC2 [Compound 311]
4. CC1(NC(=O)N2CCn3nc(-c4cc(Cl)cc(Cl)c4)c(C(N)=O)c3C2)CC(F)(F)C1 [Compound 298]
5. CC(C)(C)NC(=O)N1CCn2nc(-c3ccccc3F)c(C(N)=O)c2C1 [Compound 107]

10 to 100 nM
0.01 to 10 nM
0.01 to 10 nM
0.01 to 10 nM
100 to 2000 nM
